- Tested on: NCI-H226
- EXPERIMENT NOTES: Growth inhibition of human NCI-H226 cells at 10 uM incubated for 48 hrs by sulforhodamine B assay
- Assay type: functional, cell-based
Active and inactive are the calls of the source. No cut-off for these calls is given here.
Assign a class; possible classes are active, inactive

Task: # lookup: test call for O=CN1N=C(c2ccc(Cl)cc2)CC1c1cccc(Nc2ccnc3cc(Cl)ccc23)c1 (stereo not given)
Result: active

Task: # lookup: test call for COc1ccc(C2=NN(c3ccc(Cl)cc3)C(c3cccc(Nc4ccnc5cc(Cl)ccc45)c3)C2)cc1 (stereo not given)
Result: inactive

Task: # lookup: test call for COc1cc(C2=NN(c3ccc(Cl)cc3)C(c3cccc(Nc4ccnc5cc(Cl)ccc45)c3)C2)cc(OC)c1OC (stereo not given)
Result: inactive

Task: # lookup: test call for COc1ccc(C2=NN(c3ccccc3)C(c3cccc(Nc4ccnc5cc(Cl)ccc45)c3)C2)cc1 (stereo not given)
Result: inactive

Task: # lookup: test call for COc1cc(C(=O)/C=C/c2cccc(Nc3ccnc4cc(Cl)ccc34)c2)cc(OC)c1OC
Result: active

Task: # lookup: test call for COc1ccc(C(=O)/C=C/c2cccc(Nc3ccnc4cc(Cl)ccc34)c2)cc1
Result: active

Task: # lookup: test call for Clc1ccc(C2=NN(c3ccc(Cl)cc3)C(c3cccc(Nc4ccnc5cc(Cl)ccc45)c3)C2)cc1 (stereo not given)
Result: inactive

Task: # lookup: test call for COc1ccc(C2=NN(C=O)C(c3cccc(Nc4ccnc5cc(Cl)ccc45)c3)C2)cc1 (stereo not given)
Result: active

Task: # lookup: test call for Clc1ccc(C2=NN(c3cc(Cl)cc(Cl)c3)C(c3cccc(Nc4ccnc5cc(Cl)ccc45)c3)C2)cc1 (stereo not given)
Result: inactive

Task: # lookup: test call for Clc1ccc(C2=NN(c3ccccc3)C(c3cccc(Nc4ccnc5cc(Cl)ccc45)c3)C2)cc1 (stereo not given)
Result: inactive

----------
- Tested on: LOX IMVI
- EXPERIMENT NOTES: Growth inhibition of human LOXIMVI cells incubated for 48 hrs by sulforhodamine B assay
- Assay type: functional
- TEST SETTINGS: read-out: LC50 (the source's name)
Could you please report measured CC50 for the items listed next?
Write the number in µM without appending the unit.

Task: Please list CC50 recorded for the molecule O=CN1N=C(c2ccc(Cl)cc2)CC1c1cccc(Nc2ccnc3cc(Cl)ccc23)c1 (centres undefined)
Result: 9.05

Task: Please list CC50 recorded for the molecule COc1ccc(C2=NN(C=O)C(c3cccc(Nc4ccnc5cc(Cl)ccc45)c3)C2)cc1 (centres undefined)
Result: 39

Task: Please list CC50 recorded for the molecule COc1cc(C(=O)/C=C/c2cccc(Nc3ccnc4cc(Cl)ccc34)c2)cc(OC)c1OC
Result: 3.95

----------
- System: NCI-H23
- EXPERIMENT NOTES: Growth inhibition of human NCI-H23 cells incubated for 48 hrs by sulforhodamine B assay
- Type: functional
- TEST SETTINGS: NCI-H23, 48 h
Could you please report measured log10 GI50 for the items listed next?
Field: value | Transform: log10 | Quantity: GI50 | Unit: nM

Task: Lab note: record log10 GI50 of O=CN1N=C(c2ccc(Cl)cc2)CC1c1cccc(Nc2ccnc3cc(Cl)ccc23)c1 (stereo not given) tested on NCI-H23.
Result: 3.03

Task: Lab note: record log10 GI50 of COc1cc(C(=O)/C=C/c2cccc(Nc3ccnc4cc(Cl)ccc34)c2)cc(OC)c1OC tested on NCI-H23.
Result: 3.22

Task: Lab note: record log10 GI50 of COc1ccc(C(=O)/C=C/c2cccc(Nc3ccnc4cc(Cl)ccc34)c2)cc1 tested on NCI-H23.
Result: 3.17

Task: Lab note: record log10 GI50 of COc1ccc(C2=NN(C=O)C(c3cccc(Nc4ccnc5cc(Cl)ccc45)c3)C2)cc1 (stereo not given) tested on NCI-H23.
Result: 3.27

Task: Lab note: record log10 GI50 of COc1cccc2c1C(=O)c1c(O)c3c(c(O)c1C2=O)C[C@@](O)(C(=O)CO)C[C@@H]3O[C@H]1C[C@H](N)[C@H](O)[C@H](C)O1 tested on NCI-H23.
Result: 2.18

These measurements were taken from ChEMBL document CHEMBL4038284.
